Each record here notes measured DC50.
Target: ER (Homo sapiens)
Construct: host or cells: T47D and MCF7 human breast cancer cells
Experiment: ER degradation activity, in-cell western blot analysis in T47D cells
Type: cell-based
Conditions: 16 hours, Table A does not say which cell line (T47D or MCF7), read-out: Potency (DC50)

Worked set:
1. O=C1CCC(N2C(=O)c3cc4c(cc3C2=O)CN(C(=O)CN2CC3(C2)CN(c2ccc(C5=C(c6ccc(F)cc6)CCCc6cc(O)ccc65)cc2)C3)C4)C(=O)N1 (stereo not drawn) [E 49]    10 to 100 nM
2. O=C1CCC(N2C(=O)c3cc4c(cc3C2=O)CN([C@H]2CC[C@H](NC3CCN(c5ccc([C@@H]6c7ccc(O)cc7CC[C@@H]6c6ccccc6)cc5)CC3)CC2)C4)C(=O)N1 (stereo partly drawn) [E 335]    > 100 nM

Then there is this molecule:
What measured DC50 goes with C[C@@H]1Cc2c([nH]c3ccccc23)[C@@H](c2ccc(C3=CCC(C(=O)N4CCC(N5Cc6cc7c(cc6C5)C(=O)N(C5CCC(=O)NC5=O)C7=O)CC4)CC3)cc2)N1CC(F)F (stereo partly drawn) [E 316] ?
> 100 nM
